Test system: SK-MEL-2 melanoma
Test: NCI tumour cell line growth inhibition, 48 h; in the data active = GI50 below about 0.43 µM; inactive = the rest
Outcome field: choose from yes (active), no (inactive)

Below are worked cases with known answers.
INSERT INTO assay_data (compound, experimental_target, assigned_label) VALUES
  ('O=C(Cn1c(C(=O)c2ccc(Cl)cc2)nc(-c2ccccc2)c1-c1ccccc1)c1ccc(Cl)cc1', 'SK-MEL-2 melanoma', 'no'),
  ('NC(=O)c1sc(-n2cnc3ccc(C(F)(F)F)cc32)cc1OCc1ccccc1Br', 'SK-MEL-2 melanoma', 'no'),
  ('COc1ccc(C(=O)/C=C/c2cc(-c3ccc4c(c3)OCO4)n[nH]2)cc1OC', 'SK-MEL-2 melanoma', 'no'),
  ('O=C1CC(c2ccsc2)c2snc(-c3ccc(Cl)cc3)c2N1 (stereo not given)', 'SK-MEL-2 melanoma', 'no'),
  ('O=C(Oc1ccccc1Cl)c1ccccc1Nc1cccc(C(F)(F)F)c1', 'SK-MEL-2 melanoma', 'no');

Q) How was `CN1CCN(c2ccc3nc(-c4[nH]ncc4Nc4ncnc5c4OCCCN5)[nH]c3c2)CC1` classified in this test?
A) yes

Q) How was `COc1cc(-c2nc(-c3ccc(-c4nc5ccc(F)cc5[nH]4)cc3)no2)cc(OC)c1OC` classified in this test?
A) no

Q) How was `Cc1ccc2nc3c(n2c1)C(=O)C(=O)c1ccccc1-3` classified in this test?
A) yes

Q) How was `COc1cc(OC)c(F)c(COc2cnc(Nc3cnn(CCO)c3)nc2)c1F` classified in this test?
A) yes

Q) How was `COc1ccc(-c2nc(-c3ccccn3)c(-c3ccccn3)n2CC(C)C)cc1OC1CCCC1` classified in this test?
A) no

###

For each entry below, report its GI50 value.
Tested on: CCRF-CEM leukemia
Experiment: NCI tumour cell line growth inhibition, 48 h

Solved entries (count: 5):
INSERT INTO results (molecule, measurement) VALUES
  ('COc1ccc(-n2cc(-c3cc(OC)c(OC)c(OC)c3)[nH]c2=S)cc1Cl', '0.6 µM'),
  ('COc1ccc(/C=N\NC(=O)c2ccc3nc(-c4ccc(Cl)cc4)[nH]c3c2)cc1', '4.9 µM'),
  ('COc1cc(OC)c(F)c(COc2cnc(Nc3cnn(CCO)c3)nc2)c1F', '0.669 µM'),
  ('CNC(=O)c1cc(Oc2ccc3nc(N[C@@H]4CCCC[C@H]4O)sc3c2)ccn1', '43.1 µM'),
  ('CCCCCCCCNC(C)C(O)c1ccc(SC(C)C)cc1 (configuration not stated)', '2.44 µM');

Count: 2. Required value per item: GI50.
1. CC(=O)Nc1ccc(-c2csc(Nc3cccc(-c4csc(-c5ccccc5)n4)c3)n2)cc1
2. Oc1ccc(Oc2cnc3cc(Cl)ccc3n2)cc1

A)
1. > 50 µM
2. 1.62 µM

###

Tested on: NCI-H226 lung
Experiment: NCI tumour cell line growth inhibition, 48 h
For each entry below, report its TGI value.

INSERT INTO measurements (compound, measurement) VALUES
  ('CN(C(=O)C12C3C4C1C1C2C3C41C(O)C(C)(C)C)C(C)(C)C (centres undefined)', '> 100 µM');

Count: 7. Required value per item: TGI.
1. O=S1c2ccccc2NC(c2ccc3ccccc3c2)CC1c1ccccc1 (centres undefined)
2. O=C(N[C@H]1CCC[C@H]1C(=O)Nc1ccc(C(F)(F)F)cc1)OCc1ccccc1
3. O=S(c1ccc(Cl)cc1)c1ccccc1C1=NCCN1 (centres undefined)
4. Nc1nc(-c2ccc(Cl)cc2)cc(-c2ccc(Cl)cc2)c1-c1nc2ccccc2o1
5. COc1cc2cnc(-c3ccccc3)cc2cc1OC
6. COc1cc(OC)c(F)c(COc2cnc(Nc3cnn(CCO)c3)nc2)c1F
7. COc1cc(C(=O)O/N=C(\N)Cc2cccc3ccccc23)cc(OC)c1OC

A)
48.9 µM
> 100 µM
> 100 µM
34.9 µM
45.8 µM
> 23.9 µM
42.5 µM

Count: 3. Required value per item: TGI.
1. C=C(C)[C@@H]1CC[C@]2(C(=O)O)CC[C@]3(C)[C@H](CC[C@@H]4[C@@]5(C)C/C(=C/c6cccc(I)c6)C(=O)C(C)(C)[C@@H]5CC[C@]43C)[C@@H]12
2. CCOc1ccc(NCC2CC/C(=C\c3ccc(Cl)cc3)C2=O)cc1 (centres undefined)
3. COc1ccc(-n2cc(-c3cc(OC)c(OC)c(OC)c3)[nH]c2=S)cc1Cl

A)
1: 10.1 µM; 2: > 100 µM; 3: > 100 µM
